molecular target: mouse TAAR1 (Mus musculus); construct: expressed in transfected cells; host or cells: HEK293 (ATCC # CRL-1573), stably transfected with pIRESneo2 expression plasmid; assay: TAAR1 radioligand binding with [3H]-rac-2-(1,2,3,4-tetrahydro-1-naphthyl)-2-imidazoline, membranes of stably transfected HEK293 cells; details: first value of the cell, read-out: Ki (μM) mouse/rat: mouse
Sequence (Q923Y8 whole entry): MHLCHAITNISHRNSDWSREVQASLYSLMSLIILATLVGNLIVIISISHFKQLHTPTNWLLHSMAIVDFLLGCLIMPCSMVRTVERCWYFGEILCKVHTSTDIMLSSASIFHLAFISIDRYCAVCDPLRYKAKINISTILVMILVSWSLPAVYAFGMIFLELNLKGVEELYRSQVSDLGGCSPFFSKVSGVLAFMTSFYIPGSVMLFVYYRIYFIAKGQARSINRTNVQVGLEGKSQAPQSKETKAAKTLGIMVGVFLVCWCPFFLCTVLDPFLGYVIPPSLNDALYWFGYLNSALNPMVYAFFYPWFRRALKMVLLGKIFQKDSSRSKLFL
Reported endpoint: Ki (µM)

smiles_data=NC1=N[C@@H](CCc2ccc(NC(=O)C3CCCCC3)cc2)CO1 units_label=µM meas_value=0.0024

[I] NC1=N[C@@H](CCc2ccc(NC(=O)C(F)(F)c3ccc(Cl)c(Cl)c3)cc2)CO1
[II] COc1ncccc1C(=O)Nc1ccc(CC[C@H]2COC(N)=N2)cc1
[III] COc1cc(C(=O)Nc2ccc(CC[C@@H]3N=C(N)O[C@H]3C)cc2)nc(Cl)n1
Q: Order the entries by their reported Ki, beginning at the minimum. Output spec: labels arranged per the requested ranking.
Ans: I, II, III
